# TESTED SYSTEM: CB1 (mutant) (Homo sapiens)
# TEST NAME: R-SAT functional receptor assay, CB1 (mutant, truncated after amino acid 417)
# Type: cell-based
# SETUP CONDITIONS: Appendix A; R-SAT CB1; receptor form (mutant or wild-type) not stated; read-out: pIC50 (converted)
QUANTITY MEASURED: IC50 (nM)
Return type: number; implicit unit nM.

Consider the following illustrative entries.
O=C(NCc1cccs1)c1ccc2c(c1)N=C(c1ccccn1)c1ccccc1S2 [drawing 1037]    25.1
CC(NC(=O)c1ccc2c(c1)N=C(C1CCCCC1)c1ccccc1S2)c1ccccc1 (stereo not drawn) [drawing 634]    63.1
CC(C)NC(=O)c1ccc2c(c1)N=C(c1ccc(Cl)s1)c1ccccc1S2 [drawing 550]    39.8
O=C(NCc1ccccc1)c1ccc2c(c1)N=C(C1CCCCC1)c1ccccc1S2 [drawing 877]    15.8
CCCCC1=Nc2cc(C(=O)NC)ccc2Sc2ccccc21    50.1
CC(C)CNC(=O)c1ccc2c(c1)N=C(c1ccc(F)cn1)c1ccccc1S2 [drawing 711]    7.94
CCCC1=NC2=C(CCC(C(=O)N3CCN(c4ccccc4F)CC3)=C2)Sc2ccccc21    251

Prompt line: Tell me its IC50 given CC(CNC(=O)c1ccc2c(c1)N=C(c1ccc(Cl)cc1)c1cc(F)ccc1S2)c1ccccc1 (stereo not drawn) [drawing 1173] as the entry.
Response line: 39.8

====

# TESTED SYSTEM: CB1 (mutant) (Homo sapiens, UniProt P21554)
# Sequence (P21554 1-417, change not shown): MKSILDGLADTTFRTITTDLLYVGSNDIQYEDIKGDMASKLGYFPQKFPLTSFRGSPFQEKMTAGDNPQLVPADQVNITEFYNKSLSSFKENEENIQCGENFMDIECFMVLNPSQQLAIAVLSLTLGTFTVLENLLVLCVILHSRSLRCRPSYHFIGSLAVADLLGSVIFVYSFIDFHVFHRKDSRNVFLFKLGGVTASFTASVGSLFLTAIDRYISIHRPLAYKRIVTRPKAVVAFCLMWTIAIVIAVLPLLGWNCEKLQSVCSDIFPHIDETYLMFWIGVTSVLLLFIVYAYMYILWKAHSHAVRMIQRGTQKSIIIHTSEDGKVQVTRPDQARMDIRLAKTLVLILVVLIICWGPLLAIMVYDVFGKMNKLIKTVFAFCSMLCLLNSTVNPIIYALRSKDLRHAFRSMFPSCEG
# TEST NAME: R-SAT functional receptor assay, CB1 (mutant, truncated after amino acid 417)
# Format: cell-based
# SETUP CONDITIONS: Appendix A; R-SAT CB1; receptor form not stated; relative to SR141716 (100%); read-out: % Inhibition
QUANTITY MEASURED: Emax (%)
Return type: number; implicit unit %.

Consider the following illustrative entries.
O=C(NN1CCCCCC1)c1ccc2c(c1)N=C(c1ccc(Cl)cc1F)c1ccccc1S2 [drawing 867]    102
O=C(NN1CCCCC1)c1ccc2c(c1)N=C(c1ccc(Cl)s1)c1ccccc1S2 [drawing 823]    97
CCCC1=Nc2cc(C(=O)NCCN(CC(C)C)CC(C)C)ccc2Sc2ccccc21    105
O=C(NCCc1cccnc1)c1ccc2c(c1)N=C(c1ccc(Cl)cc1)c1ccccc1S2 [drawing 638]    116
Cc1ccsc1C1=Nc2cc(C(=O)NC(C)C)ccc2Sc2ccccc21 [drawing 684]    95

# input for lookup
Prompt line: Tell me its Emax given `O=C(NN1CCCCC1)c1ccc2c(c1)N=C(c1ccccc1)c1ccccc1O2` as the entry.
Response line: 57

====

# TESTED SYSTEM: human CB1 receptor (Homo sapiens)
# Sequence (P21554 whole entry): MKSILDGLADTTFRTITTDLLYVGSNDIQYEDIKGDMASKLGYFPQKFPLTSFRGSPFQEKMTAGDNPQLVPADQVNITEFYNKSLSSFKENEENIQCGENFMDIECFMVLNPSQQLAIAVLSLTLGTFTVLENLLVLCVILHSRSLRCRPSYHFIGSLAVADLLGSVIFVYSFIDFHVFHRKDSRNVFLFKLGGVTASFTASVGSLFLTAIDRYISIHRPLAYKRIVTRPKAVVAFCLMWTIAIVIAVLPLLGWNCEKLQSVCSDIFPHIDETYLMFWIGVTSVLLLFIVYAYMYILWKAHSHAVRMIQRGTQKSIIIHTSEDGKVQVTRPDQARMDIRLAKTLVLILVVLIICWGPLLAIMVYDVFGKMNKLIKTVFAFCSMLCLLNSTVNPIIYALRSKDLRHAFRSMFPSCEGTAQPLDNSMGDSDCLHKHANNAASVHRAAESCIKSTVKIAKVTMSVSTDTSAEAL
# TEST NAME: CB1 receptor human binding assay ([3H]SR141716A, transfected HEK-293 T membranes)
# SETUP CONDITIONS: human CB1, HEK-293 T membranes
Listed compounds paired with reported Binding Human Inh %
Return type: number; implicit unit %.

O=C(NN1CCCCCC1)c1ccc2c(c1)N=C(c1ccc(Cl)s1)c1ccccc1S2 [drawing 1208]    96
O=C(NN1CCCCC1)c1ccc2c(c1)N=C(c1ccc(F)cc1)c1ccccc1S2 [drawing 1207]    87
CC(C)CCNC(=O)c1ccc2c(c1)N=C(c1cccc(Cl)c1)c1ccccc1S2 [drawing 1185]    86
CC(C)CNC(=O)c1ccc2c(c1)N=C(c1ccccn1)c1ccccc1S2 [drawing 1217]    89
COc1cccc(C2=Nc3cc(C(=O)NC4CCC(F)(F)CC4)ccc3Sc3ccccc32)n1 [drawing 1193]    88

Prompt line: Tell me its Binding Human Inh % given CC(C)CNC(=O)c1ccc2c(c1)N=C(c1ccc(Cl)c(Cl)c1)c1ccccc1S2 [drawing 1192] as the entry.
Response line: 100

Prompt line: Tell me its Binding Human Inh % given CC(C)CNC(=O)c1ccc2c(c1)N=C(c1ccc(Cl)cc1)c1ccc(F)cc1S2 [drawing 1177] as the entry.
Response line: 93

Prompt line: Tell me its Binding Human Inh % given CC(C)CNC(=O)c1ccc2c(c1)N=C(c1ccc(Cl)cc1F)c1ccccc1S2 [drawing 1199] as the entry.
Response line: 77

Prompt line: Tell me its Binding Human Inh % given O=C(NN1CCCCC1)c1ccc2c(c1)N=C(C1CCCCC1)c1ccccc1S2 [drawing 1216] as the entry.
Response line: 65

Prompt line: Tell me its Binding Human Inh % given COCCNC(=O)c1ccc2c(c1)N=C(c1ccc(Cl)s1)c1ccccc1S2 [drawing 1218] as the entry.
Response line: 94

Prompt line: Tell me its Binding Human Inh % given O=C(NCc1cccs1)c1ccc2c(c1)N=C(c1ccc(F)cc1)c1ccccc1S2 [drawing 1178] as the entry.
Response line: 76

Prompt line: Tell me its Binding Human Inh % given CCCCNC(=O)c1ccc2c(c1)N=C(c1ccc(Cl)cc1)c1ccc(F)cc1S2 [drawing 1184] as the entry.
Response line: 94

Prompt line: Tell me its Binding Human Inh % given CC(C)CNC(=O)c1ccc2c(c1)N=C(c1ccc(Cl)s1)c1ccc(Cl)cc1S2 [drawing 1200] as the entry.
Response line: 92

Prompt line: Tell me its Binding Human Inh % given O=C(NC1CCCCC1)c1ccc2c(c1)N=C(c1cccc(Cl)c1)c1ccccc1S2 [drawing 1194] as the entry.
Response line: 107
